# Tested on: Porphyromonas gingivalis
# assay protocol: Growth inhibition of Porphyromonas gingivalis at 40 uM measured after 24 hrs
Task for the reader: assign each of the following compounds its reported growth inhibition (GI).
Numbers only, in %.

Example compounds with recorded growth inhibition (GI):
> print(dat)
                              smiles.record                    target  measured.number
1  COc1ccc(-c2nc(-c3cccc(-n4cc(-c5cccc(F)c5)nn4)c3)oc2-c2ccc(OC)cc2)cc1  Porphyromonas gingivalis             -2.6
2  FC(F)(F)c1ccccc1-c1cn(-c2cccc(-c3nc(-c4ccc(Br)cc4)c(-c4ccc(Br)cc4)o3)c2)nn1  Porphyromonas gingivalis             -0.6
3  COc1ccc(-c2nc(-c3cccc(-n4cc(-c5ccccc5C(F)(F)F)nn4)c3)oc2-c2ccc(OC)cc2)cc1  Porphyromonas gingivalis             -1.6
4  COc1ccc(-c2nc(-c3cccc(-n4cc(-c5ccccc5OC)nn4)c3)oc2-c2ccc(OC)cc2)cc1  Porphyromonas gingivalis             -6.2
5  COc1ccc(-c2nc(-c3cccc(-n4cc(-c5ccc(F)cc5)nn4)c3)oc2-c2ccc(OC)cc2)cc1  Porphyromonas gingivalis            -14.6
6  Fc1ccc(-c2nc(-c3ccc(-n4cc(-c5ccccc5C(F)(F)F)nn4)cc3)oc2-c2ccc(F)cc2)cc1  Porphyromonas gingivalis              0.1

Proceeding to the next compound to report its growth inhibition (GI).
input: Look at this compound and give its reported growth inhibition (GI). COc1ccccc1-c1cn(-c2cccc(-c3nc(-c4ccc(Br)cc4)c(-c4ccc(Br)cc4)o3)c2)nn1
output: 4.3
